Biological target: DNA primase (Homo sapiens, UniProt P49642+P49643)
Construct: using a nuclear extract comprising primase activity, as described above; endogenous in cells
Sequence (P49642 whole entry): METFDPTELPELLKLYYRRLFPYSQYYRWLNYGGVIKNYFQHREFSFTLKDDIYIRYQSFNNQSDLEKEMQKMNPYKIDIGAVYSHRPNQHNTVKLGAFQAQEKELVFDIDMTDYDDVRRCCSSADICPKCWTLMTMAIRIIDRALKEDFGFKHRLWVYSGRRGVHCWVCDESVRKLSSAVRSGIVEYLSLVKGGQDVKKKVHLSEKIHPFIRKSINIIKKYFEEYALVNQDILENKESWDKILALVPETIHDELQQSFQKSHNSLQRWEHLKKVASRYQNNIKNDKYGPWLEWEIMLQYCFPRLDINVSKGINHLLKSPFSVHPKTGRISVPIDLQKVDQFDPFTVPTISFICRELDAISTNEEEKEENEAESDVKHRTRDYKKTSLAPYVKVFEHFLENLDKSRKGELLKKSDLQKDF
Sequence (P49643 whole entry): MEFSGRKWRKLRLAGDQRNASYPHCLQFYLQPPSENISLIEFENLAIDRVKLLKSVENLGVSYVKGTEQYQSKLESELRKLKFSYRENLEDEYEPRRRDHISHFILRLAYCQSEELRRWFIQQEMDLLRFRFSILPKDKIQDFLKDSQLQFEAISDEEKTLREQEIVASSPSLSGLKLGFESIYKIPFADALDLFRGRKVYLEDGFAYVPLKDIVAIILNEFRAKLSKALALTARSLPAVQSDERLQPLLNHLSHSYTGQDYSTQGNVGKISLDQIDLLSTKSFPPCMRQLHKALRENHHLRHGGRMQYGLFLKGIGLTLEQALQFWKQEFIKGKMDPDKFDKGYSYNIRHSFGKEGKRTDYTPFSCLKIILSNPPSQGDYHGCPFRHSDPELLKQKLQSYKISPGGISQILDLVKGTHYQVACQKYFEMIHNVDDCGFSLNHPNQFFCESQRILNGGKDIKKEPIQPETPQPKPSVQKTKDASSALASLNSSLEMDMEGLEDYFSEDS
Sequence (P09884 whole entry partner): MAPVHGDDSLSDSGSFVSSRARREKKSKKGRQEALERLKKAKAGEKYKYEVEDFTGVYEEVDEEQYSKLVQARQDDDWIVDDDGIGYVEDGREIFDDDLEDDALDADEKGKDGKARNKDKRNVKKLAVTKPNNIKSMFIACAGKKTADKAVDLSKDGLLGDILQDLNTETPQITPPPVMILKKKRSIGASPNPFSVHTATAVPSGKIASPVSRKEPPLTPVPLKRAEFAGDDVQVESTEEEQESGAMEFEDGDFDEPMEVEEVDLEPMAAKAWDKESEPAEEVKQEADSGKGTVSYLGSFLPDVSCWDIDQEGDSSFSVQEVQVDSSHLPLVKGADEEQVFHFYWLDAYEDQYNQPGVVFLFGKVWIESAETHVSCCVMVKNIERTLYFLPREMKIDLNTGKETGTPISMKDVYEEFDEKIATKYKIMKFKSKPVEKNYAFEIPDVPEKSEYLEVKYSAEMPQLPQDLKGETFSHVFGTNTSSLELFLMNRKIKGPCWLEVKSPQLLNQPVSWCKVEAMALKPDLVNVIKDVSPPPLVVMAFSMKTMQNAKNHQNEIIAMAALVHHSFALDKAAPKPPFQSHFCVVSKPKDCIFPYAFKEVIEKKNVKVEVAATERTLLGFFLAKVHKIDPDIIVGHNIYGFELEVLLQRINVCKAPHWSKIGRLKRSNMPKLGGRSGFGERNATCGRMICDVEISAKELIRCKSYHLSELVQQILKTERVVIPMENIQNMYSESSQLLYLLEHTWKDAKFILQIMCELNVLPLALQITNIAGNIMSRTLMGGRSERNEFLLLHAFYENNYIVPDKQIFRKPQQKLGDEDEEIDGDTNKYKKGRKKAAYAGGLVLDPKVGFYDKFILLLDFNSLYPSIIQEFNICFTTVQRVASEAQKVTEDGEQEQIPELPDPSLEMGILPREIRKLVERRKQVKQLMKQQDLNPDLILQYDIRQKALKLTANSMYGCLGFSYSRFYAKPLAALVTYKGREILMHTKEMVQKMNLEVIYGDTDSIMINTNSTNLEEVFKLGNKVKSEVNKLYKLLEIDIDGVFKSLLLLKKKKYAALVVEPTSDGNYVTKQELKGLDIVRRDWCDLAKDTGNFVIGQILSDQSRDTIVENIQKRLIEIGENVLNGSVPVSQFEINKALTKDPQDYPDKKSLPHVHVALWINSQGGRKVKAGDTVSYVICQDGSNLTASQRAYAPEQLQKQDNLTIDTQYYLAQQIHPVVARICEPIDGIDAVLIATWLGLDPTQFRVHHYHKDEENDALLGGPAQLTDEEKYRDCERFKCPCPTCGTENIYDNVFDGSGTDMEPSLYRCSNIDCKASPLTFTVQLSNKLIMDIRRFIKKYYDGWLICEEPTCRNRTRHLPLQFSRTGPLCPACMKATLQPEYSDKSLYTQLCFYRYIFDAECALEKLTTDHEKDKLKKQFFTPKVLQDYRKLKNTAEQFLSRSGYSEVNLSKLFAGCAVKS
Sequence (Q14181 whole entry partner): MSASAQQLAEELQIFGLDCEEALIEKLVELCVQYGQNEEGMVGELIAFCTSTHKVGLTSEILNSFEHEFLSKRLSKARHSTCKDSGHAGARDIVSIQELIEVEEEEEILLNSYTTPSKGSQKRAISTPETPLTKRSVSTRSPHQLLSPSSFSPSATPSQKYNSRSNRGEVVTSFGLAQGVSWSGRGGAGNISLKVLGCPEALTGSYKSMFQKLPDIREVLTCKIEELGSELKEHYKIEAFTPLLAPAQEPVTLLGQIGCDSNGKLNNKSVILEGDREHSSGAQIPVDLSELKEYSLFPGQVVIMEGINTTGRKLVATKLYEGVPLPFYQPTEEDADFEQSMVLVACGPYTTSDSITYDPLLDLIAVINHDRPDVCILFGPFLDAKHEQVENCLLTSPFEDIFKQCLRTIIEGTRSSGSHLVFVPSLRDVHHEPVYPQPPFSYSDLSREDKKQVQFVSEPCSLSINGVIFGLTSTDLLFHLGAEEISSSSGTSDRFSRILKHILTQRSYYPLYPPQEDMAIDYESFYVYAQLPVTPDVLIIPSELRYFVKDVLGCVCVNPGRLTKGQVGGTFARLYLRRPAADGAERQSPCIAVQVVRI
Assay: Primase activity assay (incorporation of radioactive dATP on poly(dT) template)
Conditions: approximate concentration at which 50% of the primase enzyme activity was inhibited; determined using the methods described herein; read-out: IC50 (primase-inhibiting properties)
quantity_name: IC50

The recorded IC50 for entry O=C(Nc1ccc(F)cc1F)c1csc(-c2ccncc2)n1 [Compound 8] equals ~19 µM

The recorded IC50 for entry O=C(Nc1ccc(Cl)cc1)c1csc(-c2ccncc2)n1 [Compound 6] equals ~37 µM

The recorded IC50 for entry O=C(Nc1cccc(C(F)(F)F)c1)c1csc(-c2ccncc2)n1 [Compound 4] equals ~37 µM

The recorded IC50 for entry O=C(Nc1ccc(Br)cc1)c1csc(-c2ccncc2)n1 [Compound 7] equals ~63 µM

The recorded IC50 for entry O=C(Nc1ccc(C(F)(F)F)cc1)c1csc(-c2ccncc2)n1 [Compound 5] equals ~44 µM

The recorded IC50 for entry O=C(Nc1ccccc1Cl)c1csc(-c2cccnc2)n1 [Compound 2] equals ~30 µM
